Source listed as the RNAGym collection of RNA variant scans (doi:10.1021/acssynbio.7b00057).

B1: Pistol ribozyme (parent)
chain: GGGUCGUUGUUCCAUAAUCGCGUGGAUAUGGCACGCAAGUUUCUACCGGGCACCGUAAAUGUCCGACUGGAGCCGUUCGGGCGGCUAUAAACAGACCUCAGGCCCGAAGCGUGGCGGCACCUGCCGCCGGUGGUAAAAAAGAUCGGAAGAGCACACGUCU

- Variants of: B1
- Procedure Details: aptazyme ON/OFF ratio, guanine; higher = stronger switching; co-transcriptional cleavage with and without guanine
Listed below: aptazyme ON/OFF ratio values for each entry.
Measure: aptazyme ON/OFF ratio

[
  {
    "Variant Spec": "U7A G9U U11G C12U C13G",
    "Quantitative Readout": 1.3
  },
  {
    "Variant Spec": "G9U U10C U11C C13A",
    "Quantitative Readout": 1.04
  },
  {
    "Variant Spec": "U7C U8A G9C U10A U11G C12U C13G",
    "Quantitative Readout": 1.08
  },
  {
    "Variant Spec": "U8C U10A U11A C12G C13U",
    "Quantitative Readout": 1.28
  },
  {
    "Variant Spec": "U7C U8C U10A C13A",
    "Quantitative Readout": 1.06
  },
  {
    "Variant Spec": "U7G U8A G9A U10A U11C C12G C13G",
    "Quantitative Readout": 1.05
  },
  {
    "Variant Spec": "U7C U8G G9C U10A C13G",
    "Quantitative Readout": 1.08
  },
  {
    "Variant Spec": "U8G U11A C12G C13A",
    "Quantitative Readout": 1.1
  },
  {
    "Variant Spec": "U8C U10C U11A C12A C13A",
    "Quantitative Readout": 1.35
  },
  {
    "Variant Spec": "U10A U11G C12U C13U",
    "Quantitative Readout": 1.27
  },
  {
    "Variant Spec": "U7C U8A G9C U10G U11C C12A C13U",
    "Quantitative Readout": 1.43
  },
  {
    "Variant Spec": "U7A U8G G9U U11A C13A",
    "Quantitative Readout": 1.38
  },
  {
    "Variant Spec": "U7C U8G G9C C12U C13A",
    "Quantitative Readout": 1.16
  },
  {
    "Variant Spec": "U7A U8C U10C U11C C12G",
    "Quantitative Readout": 1.19
  },
  {
    "Variant Spec": "U7A U8G G9A U11C C13A",
    "Quantitative Readout": 1.12
  },
  {
    "Variant Spec": "G9A U10C U11C C13U",
    "Quantitative Readout": 1.01
  },
  {
    "Variant Spec": "U7A U8A G9U U10A U11C C12A C13G",
    "Quantitative Readout": 1.08
  },
  {
    "Variant Spec": "G9U U10C U11A C12U",
    "Quantitative Readout": 1.89
  },
  {
    "Variant Spec": "U7C U8G G9C U10A U11G C12G C13A",
    "Quantitative Readout": 1.31
  },
  {
    "Variant Spec": "U7C U8A U11G C12A C13A",
    "Quantitative Readout": 1.11
  },
  {
    "Variant Spec": "U8C G9U U10A U11G C12U C13G",
    "Quantitative Readout": 1.14
  },
  {
    "Variant Spec": "U7C U8C G9U U10C C12G",
    "Quantitative Readout": 1.22
  },
  {
    "Variant Spec": "U7G U8G U10C U11G",
    "Quantitative Readout": 1.56
  },
  {
    "Variant Spec": "U7A U8G G9C U10A U11C C12G C13G",
    "Quantitative Readout": 1.17
  },
  {
    "Variant Spec": "U8C G9A U10A U11A C12U C13U",
    "Quantitative Readout": 1.19
  },
  {
    "Variant Spec": "U7G U8G G9U U10G U11A C12U",
    "Quantitative Readout": 1.27
  },
  {
    "Variant Spec": "U7C U8C U10G U11G C12U",
    "Quantitative Readout": 1.22
  },
  {
    "Variant Spec": "U7C U8A G9A U10A U11A C12G C13U",
    "Quantitative Readout": 1.22
  },
  {
    "Variant Spec": "U8C G9U U10A U11A C12A C13A",
    "Quantitative Readout": 1.28
  },
  {
    "Variant Spec": "U7C U8G U10C C12U C13U",
    "Quantitative Readout": 2.3
  },
  {
    "Variant Spec": "U7G U8G G9A U10G C12U C13G",
    "Quantitative Readout": 1.31
  },
  {
    "Variant Spec": "U7A U10G U11A C12A C13G",
    "Quantitative Readout": 1.11
  },
  {
    "Variant Spec": "U7G U8C G9C U10G U11G C12A C13G",
    "Quantitative Readout": 1.13
  },
  {
    "Variant Spec": "U7A U8G U10C U11G C12G C13U",
    "Quantitative Readout": 1.41
  },
  {
    "Variant Spec": "U7C U8A G9C U10G U11A C12G C13A",
    "Quantitative Readout": 1.1
  },
  {
    "Variant Spec": "U8A U10G U11G C13U",
    "Quantitative Readout": 1.3
  },
  {
    "Variant Spec": "U8G C13A",
    "Quantitative Readout": 1.3
  },
  {
    "Variant Spec": "U7G G9U U10A U11A",
    "Quantitative Readout": 3.18
  },
  {
    "Variant Spec": "U7C U8G U10G U11A C12A",
    "Quantitative Readout": 1.21
  },
  {
    "Variant Spec": "U7C U8A U10C U11C C12U C13U",
    "Quantitative Readout": 1.06
  },
  {
    "Variant Spec": "U7A U8C G9C U10A C12U",
    "Quantitative Readout": 1.11
  },
  {
    "Variant Spec": "U7G U8C G9U U11A C12A",
    "Quantitative Readout": 2.91
  },
  {
    "Variant Spec": "U7C U8A G9U U10C U11A C13G",
    "Quantitative Readout": 1.07
  },
  {
    "Variant Spec": "U7A U8A G9C U10G U11C C12G",
    "Quantitative Readout": 1.27
  },
  {
    "Variant Spec": "U7G G9C U10G U11C C12G C13A",
    "Quantitative Readout": 1.27
  },
  {
    "Variant Spec": "U7G U8C G9A U10G U11A C12A C13A",
    "Quantitative Readout": 1.04
  }
]
